A collection of sequences and their measured RBNS R-value
System: PfIESI-1 RRM domain (Plasmodium falciparum ortholog aa 875-1232, GST fusion)
Assay: RBNS R-value (6-mer enrichment in protein-bound RNA vs input library) (ratio); higher = stronger binding preference
Conditions: protein concentration: 1000 nM
Over roughly 4,100 sequences, “RBNS R-value (6-mer enrichment in protein-bound RNA vs input library)” has its median near 0.99; the highest 2% begin near 1.4. The full list was thinned out, with the highest values kept by preference.
Number only, no unit.

- Macromolecule Sequence: "GAUGGG"
  Endpoint Result: 1.34

Query: Report RBNS R-value on PfIESI-1 RRM domain (Plasmodium falciparum ortholog aa 875-1232, GST fusion) for this entry: GCCCGG
Response: 1.31

---

Tested on: PfIESI-1 RRM domain (Plasmodium falciparum ortholog aa 875-1232, GST fusion)
Experiment: RBNS R-value (6-mer enrichment in protein-bound RNA vs input library) (ratio); higher = stronger binding preference
Settings: protein concentration: 500 nM
In all, about 4,100 sequences were measured (“RBNS R-value (6-mer enrichment in protein-bound RNA vs input library)”: median about 0.99, highest 2% from about 1.4 on). Many of the other results were omitted from the sample, so the highest values are more common in it than they were.
A collection of sequences and their measured RBNS R-value
Number only, no unit.

- Macromolecule Sequence: "UACCGA"
  Endpoint Result: 0.978
- Macromolecule Sequence: "AGUAAA"
  Endpoint Result: 1.01
- Macromolecule Sequence: "CCCGCU"
  Endpoint Result: 0.999
- Macromolecule Sequence: "ACAACG"
  Endpoint Result: 0.979
- Macromolecule Sequence: "GACCUC"
  Endpoint Result: 0.989
- Macromolecule Sequence: "CUCACC"
  Endpoint Result: 0.994

Next sequence, RBNS R-value to be filled in.
Query: Answer with the recorded RBNS R-value for the sequence listed here: UGCAAG
Response: 1.01

---

A collection of sequences and their measured RBNS R-value
Tested on: PfIESI-1 RRM domain (Plasmodium falciparum ortholog aa 875-1232, GST fusion)
Experiment: RBNS R-value (6-mer enrichment in protein-bound RNA vs input library) (ratio); higher = stronger binding preference; the methods of the paper give 50 / 100 / 500 nM protein instead
Settings: protein concentration: 250 nM
The full ranking holds about 4,100 sequences; the median of “RBNS R-value (6-mer enrichment in protein-bound RNA vs input library)” is about 0.99, and the highest 2% start at about 1.4. The full list was thinned out, with the highest values kept by preference.
Number only, no unit.

- Macromolecule Sequence: "GCUUGC"
  Target Entity: "PfIESI-1 RRM domain (Plasmodium falciparum ortholog aa 875-1232, GST fusion)"
  Reported Property: "RBNS R-value"
  Endpoint Result: 1.01
- Macromolecule Sequence: "AGCAGG"
  Target Entity: "PfIESI-1 RRM domain (Plasmodium falciparum ortholog aa 875-1232, GST fusion)"
  Reported Property: "RBNS R-value"
  Endpoint Result: 1.02
- Macromolecule Sequence: "CUGAAU"
  Target Entity: "PfIESI-1 RRM domain (Plasmodium falciparum ortholog aa 875-1232, GST fusion)"
  Reported Property: "RBNS R-value"
  Endpoint Result: 1.01

Query: Answer with the recorded RBNS R-value for the sequence listed here: AGUCCC
Response: 1.01

Query: Answer with the recorded RBNS R-value for the sequence listed here: GUGAAA
Response: 1.01

Query: Answer with the recorded RBNS R-value for the sequence listed here: CAUUGC
Response: 0.987

Query: Answer with the recorded RBNS R-value for the sequence listed here: UUGGGU
Response: 0.975
